TARGET OR SYSTEM: T1, Proleukin® (aldesleukin) (human, UniProt P60568 21-153, limits assumed)
T1 construct: Variant of human wt IL-2 with C145S (C125S on mature IL-2); also called IL-2 (Proleukin®); human IL-2 (Proleukin)
T1 sequence (P60568 other isoform, or with tags, fused parts or gaps limits assumed): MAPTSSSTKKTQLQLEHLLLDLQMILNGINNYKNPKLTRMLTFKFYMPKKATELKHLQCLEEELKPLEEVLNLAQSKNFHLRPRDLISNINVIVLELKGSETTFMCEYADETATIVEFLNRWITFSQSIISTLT
PROTOCOL SUMMARY: ELISA, coated Proleukin, serially diluted supernatant
TEST READOUT: EC50

INSERT INTO assay_data (binder, reading) VALUES
  ('Antibody No: 4 (antibody, human IgG1, kappa, N297A, V domains shown, VH WT; VK A50T; HEK293F supernatant) VH: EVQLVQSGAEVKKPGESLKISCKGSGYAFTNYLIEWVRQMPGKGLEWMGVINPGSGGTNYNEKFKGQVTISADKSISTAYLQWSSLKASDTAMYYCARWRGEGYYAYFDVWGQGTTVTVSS VL: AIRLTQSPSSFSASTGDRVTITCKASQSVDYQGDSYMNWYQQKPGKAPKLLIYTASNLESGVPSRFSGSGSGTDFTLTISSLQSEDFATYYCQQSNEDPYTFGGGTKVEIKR', '730 pM'),
  ('Antibody No: 6 (antibody, human IgG1, kappa, N297A, V domains shown, VK WT; HEK293F supernatant) VH: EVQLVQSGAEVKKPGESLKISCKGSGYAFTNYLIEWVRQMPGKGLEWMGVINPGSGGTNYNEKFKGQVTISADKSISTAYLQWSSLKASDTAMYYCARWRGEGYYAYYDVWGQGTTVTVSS VL: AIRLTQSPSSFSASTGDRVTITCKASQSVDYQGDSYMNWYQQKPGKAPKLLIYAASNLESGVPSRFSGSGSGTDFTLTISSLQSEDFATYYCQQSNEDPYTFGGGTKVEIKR', '340 pM'),
  ('Antibody No: 12 (antibody, human IgG1, kappa, N297A, V domains shown, VH N58Y; VK M33L; also called 108924) VH: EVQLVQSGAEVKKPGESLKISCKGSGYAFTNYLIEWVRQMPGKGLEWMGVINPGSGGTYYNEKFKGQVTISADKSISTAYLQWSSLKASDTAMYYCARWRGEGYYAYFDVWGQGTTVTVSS VL: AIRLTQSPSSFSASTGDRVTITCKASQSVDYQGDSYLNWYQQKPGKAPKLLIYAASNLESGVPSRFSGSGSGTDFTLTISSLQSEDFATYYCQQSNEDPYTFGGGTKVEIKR', '250 pM'),
  ('Antibody No: 15 (antibody, human IgG1, kappa, N297A, V domains shown, VH N58Y; VK M33L + A50S; also called 108926) VH: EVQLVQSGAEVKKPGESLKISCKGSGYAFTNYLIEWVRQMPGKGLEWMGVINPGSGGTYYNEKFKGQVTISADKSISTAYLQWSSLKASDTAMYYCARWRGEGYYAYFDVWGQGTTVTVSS VL: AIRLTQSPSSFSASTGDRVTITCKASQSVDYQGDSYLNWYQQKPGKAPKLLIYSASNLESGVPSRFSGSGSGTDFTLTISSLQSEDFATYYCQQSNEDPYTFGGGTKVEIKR', '280 pM'),
  ('Antibody No: 7 (antibody, human IgG1, kappa, N297A, V domains shown, VK M33L; HEK293F supernatant) VH: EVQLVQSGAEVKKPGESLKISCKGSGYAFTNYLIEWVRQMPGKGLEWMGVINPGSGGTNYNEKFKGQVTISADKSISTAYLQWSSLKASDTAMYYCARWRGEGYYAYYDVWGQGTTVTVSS VL: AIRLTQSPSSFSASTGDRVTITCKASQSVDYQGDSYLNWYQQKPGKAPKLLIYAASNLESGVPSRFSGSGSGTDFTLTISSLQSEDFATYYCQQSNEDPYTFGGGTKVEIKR', '310 pM');
